Target: T1, recombinant human CLEC-1 protein with His Tag (#1704-CL R&D Systems) (human, UniProt Q8NC01 74-280)
T1 construct: Bought protein; also called His-CLEC1; His Clec-1; not shown: His tag
T1 sequence: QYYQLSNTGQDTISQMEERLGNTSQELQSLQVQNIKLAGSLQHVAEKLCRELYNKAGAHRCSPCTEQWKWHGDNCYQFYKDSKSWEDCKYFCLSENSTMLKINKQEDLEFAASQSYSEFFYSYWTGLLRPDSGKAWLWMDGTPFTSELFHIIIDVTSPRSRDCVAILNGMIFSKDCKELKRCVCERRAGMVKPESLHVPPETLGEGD
Assay: Blitz biolayer interferometry, His-CLEC1 on Ni-NTA biosensor, antibody at 20 ug/mL
In this section, each of the binders is paired with its reported Kd.
// return numeric value only (unit: nM, not printed)

>>> number("chimeric anti-CLEC-1A antibody 11H11 (antibody, human IgG4 S228P, kappa, V domains shown, also called 11H11chim; 11H11-VHwt-FcG4m / 11H11-VLwt-CLhk) VH: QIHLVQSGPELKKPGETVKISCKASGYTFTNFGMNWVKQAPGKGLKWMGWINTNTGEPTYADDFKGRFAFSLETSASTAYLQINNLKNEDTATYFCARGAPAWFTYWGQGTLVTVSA VL: DIQMTQSPASLSASVGETVTITCRATENIYSYLAWYQQKQGKSPQFLVYNAKTLAEGMPSRFSGSGSGTQFSLKINILQPEDFGTYYCQHHFGTPLTFGAGTKLELKR")
0.448
>>> number("chimeric anti-CLEC-1A antibody 14H9 (antibody, human IgG4 S228P, kappa, V domains shown, also called 14H9chim; 14H9-VHwt-FcG4m / 14H9-VLwt-CLhk) VH: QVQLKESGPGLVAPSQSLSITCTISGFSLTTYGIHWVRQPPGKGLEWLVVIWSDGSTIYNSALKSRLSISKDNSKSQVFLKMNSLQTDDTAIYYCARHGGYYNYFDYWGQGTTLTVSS VL: DIQMNQSPSSLSASLGDTITITCHASQNINVWLSWYQQKPGNIPKLLIYKASNLHTGVPSRFSGSGSGTTFTLTIDSLQPEDIATYYCQQGQSYWTFGGGTKLEIKR")
15.9
>>> number("chimeric anti-CLEC-1A antibody 5D1 (antibody, human IgG4 S228P, kappa, V domains shown, also called 5D1chim; 5D1-VHwt-FcG4m / 5D1-VLwt-CLhk) VH: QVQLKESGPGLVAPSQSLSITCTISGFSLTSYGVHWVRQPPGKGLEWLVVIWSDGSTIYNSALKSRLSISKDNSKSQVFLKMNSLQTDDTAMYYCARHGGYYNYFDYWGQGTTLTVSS VL: DIQMNQSPSSLSASLGDTITITCHASQNINVWLSWYQQKPGNIPKLLIYKASNLHTGVPSRFSGSGSGTGFTLTISSLQPEDIATYYCQQGQSYWTFGGGTKLEIKR")
17.4

Which Kd value belongs to chimeric anti-CLEC-1A antibody 15E3 (antibody, human IgG4 S228P, kappa, V domains shown, also called 15E3chim; 15E3-VHwt-FcG4m / 15E3-VLwt-CLhk) VH: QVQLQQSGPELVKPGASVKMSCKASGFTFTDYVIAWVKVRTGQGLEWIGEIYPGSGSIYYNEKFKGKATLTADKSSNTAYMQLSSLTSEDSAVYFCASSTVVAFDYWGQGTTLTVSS VL: EIVLTQSPTTLAASPGEKIIITCSDSSSISSNYLHWYQQKPGFSPKLLIYGTSNLASGVPARFSGSGSGTTYSLTIGTMEAEDVATYYCQQGSSIPRTFGGGTKLEIKR ?
108
